Property: IC50; scope: individual compounds
Target: human TRPA1 (Homo sapiens (Human), UniProt O75762)
Sequence (O75762 whole entry): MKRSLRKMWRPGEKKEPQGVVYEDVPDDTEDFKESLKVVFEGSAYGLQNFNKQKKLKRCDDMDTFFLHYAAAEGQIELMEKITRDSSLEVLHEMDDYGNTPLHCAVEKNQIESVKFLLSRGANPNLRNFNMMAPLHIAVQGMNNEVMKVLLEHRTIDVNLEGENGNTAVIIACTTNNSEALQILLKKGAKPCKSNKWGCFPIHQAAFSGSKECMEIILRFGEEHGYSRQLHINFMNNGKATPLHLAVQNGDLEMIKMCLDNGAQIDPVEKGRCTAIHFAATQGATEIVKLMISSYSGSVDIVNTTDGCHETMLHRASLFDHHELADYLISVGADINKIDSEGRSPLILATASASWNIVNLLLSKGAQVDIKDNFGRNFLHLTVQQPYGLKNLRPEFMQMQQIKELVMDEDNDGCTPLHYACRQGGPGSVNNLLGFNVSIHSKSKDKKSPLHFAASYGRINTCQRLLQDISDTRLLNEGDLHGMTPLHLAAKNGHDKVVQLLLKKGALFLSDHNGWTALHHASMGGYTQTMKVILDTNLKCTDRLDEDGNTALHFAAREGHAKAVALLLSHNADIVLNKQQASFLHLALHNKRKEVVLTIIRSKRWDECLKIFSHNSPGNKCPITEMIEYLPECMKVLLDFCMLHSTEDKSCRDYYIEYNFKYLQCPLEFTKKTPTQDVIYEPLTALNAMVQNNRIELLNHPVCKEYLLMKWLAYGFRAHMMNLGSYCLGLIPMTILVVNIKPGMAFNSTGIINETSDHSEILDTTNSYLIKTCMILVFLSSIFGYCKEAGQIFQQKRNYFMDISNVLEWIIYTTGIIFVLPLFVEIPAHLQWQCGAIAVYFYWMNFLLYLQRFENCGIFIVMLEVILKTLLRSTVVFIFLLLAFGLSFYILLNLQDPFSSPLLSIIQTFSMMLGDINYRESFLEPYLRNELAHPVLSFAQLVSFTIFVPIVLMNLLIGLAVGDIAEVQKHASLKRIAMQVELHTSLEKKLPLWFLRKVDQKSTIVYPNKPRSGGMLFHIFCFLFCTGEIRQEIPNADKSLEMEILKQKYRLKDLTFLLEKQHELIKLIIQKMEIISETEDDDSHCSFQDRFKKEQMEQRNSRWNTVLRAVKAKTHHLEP
Experiment: hTRPA1 CHO Ca2+ FLIPR assay (block of cinnamaldehyde induced calcium influx)
Assay type: cell-based
Details: CHO cells expressing TRPA1; 75 uM cinnamaldehyde; Hill coefficient fixed to 1.5; read-out: hTRPA1 (hTRPA1 CHO Ca2+ MAX EVO (IC50))
MEASURED_METRIC: IC50

>>> print(df.to_string())
                                   compound  reported_result
0  Cc1csc2ncc(Cc3nn(CCc4ccc(Cl)cc4)c(=O)o3)c(=O)n12 [compound 47]            65 nM
1  Cn1cnc2ncn(Cc3nn([C@H]4C[C@H](c5ccc(Cl)c(F)c5)C4)c(=O)o3)c(=O)c21 [compound 106]          29.9 nM
2  Cc1ccc(=O)n2ccn(Cc3nn([C@H]4C[C@H](c5ccc(Cl)cc5)C4)c(=O)o3)c(=O)c12 [compound 58]          40.3 nM
3  Cc1ccnc2ncn(Cc3nn([C@H]4C[C@](F)(c5cccc(F)c5)C4)c(=O)o3)c(=O)c12 [compound 75]          40.5 nM
